Assay: qHTS RealTime-Glo MT Cell Viability Assay in HepG2 cells - 8 hour (AID 1224873); note: nearly all actives have a fitted effect of over 55% in size
Details: RealTime-Glo luminescence; series mostly up to 76.8 µM
Inconclusive results are not listed. Active and inactive are the calls of the source. Calls come from the whole dose curve; as a rule, active = well fitted cell-killing curve with a large enough effect in the repeat runs; inconclusive = weak or mixed curves; inactive = flat fitted curve, though single readings scatter.
Labels: true (1) for active, false (0) for inactive

- Compound: "Clc1ccnc(Cl)n1"
  Assigned Category: "false (0)"
- Compound: "CC1(C)CCC[C@]2(C)[C@H]3CC(=O)O[C@]3(C)CC[C@@H]12"
  Assigned Category: "false (0)"
- Compound: "O=C(/C=C/c1ccc(O)c(O)c1)O[C@@H](C(=O)O)[C@@H](OC(=O)/C=C/c1ccc(O)c(O)c1)C(=O)O"
  Assigned Category: "false (0)"
- Compound: "CN(C)Cc1ccccc1O"
  Assigned Category: "false (0)"
- Compound: "COc1cccc(OC)c1C(=O)O"
  Assigned Category: "false (0)"
- Compound: "O=C1c2ccccc2C(=O)N1SC1CCCCC1"
  Assigned Category: "true (1)"
- Compound: "Fc1ccc(C(c2ccc(F)cc2)N2CCNCC2)cc1"
  Assigned Category: "false (0)"
- Compound: "CCCCCCCCCCCCCCCC[N+](C)(C)CC"
  Assigned Category: "true (1)"
- Compound: "CCCCCC(C)OC(=O)COc1ccc(Cl)c2cccnc12 (configuration not stated)"
  Assigned Category: "false (0)"
- Compound: "Cl[Si](Cl)(c1ccccc1)c1ccccc1"
  Assigned Category: "false (0)"
- Compound: "CCC(=O)C(=O)CC"
  Assigned Category: "false (0)"
- Compound: "CCOc1ccc2ccccc2c1C(=O)N[C@@H]1C(=O)N2[C@@H]1SC(C)(C)[C@@H]2C(=O)O"
  Assigned Category: "false (0)"
